Values from the supplement of paper PMC8728848

Study system: GlcNAc(b1-4)Gal(b1-4)GlcNAc
Method summary: glycan array binding signal (z-score within array); higher = stronger binding
Condition notes: glycan notation: IUPAC condensed, linker removed
Shown is part of a subset that was picked to be rich in the strongest signals.
If the reported glycan array binding signal (z-score) equals or exceeds -0.6, assign yes (1). If not, assign no (0).

[
  {
    "Binder": "CBM13 2a (Mycobacterium tuberculosum), P64849 (protein) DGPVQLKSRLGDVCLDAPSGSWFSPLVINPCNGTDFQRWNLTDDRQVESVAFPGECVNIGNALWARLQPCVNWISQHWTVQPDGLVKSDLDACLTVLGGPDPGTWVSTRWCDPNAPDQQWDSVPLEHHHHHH",
    "Category label": "yes (1)"
  },
  {
    "Binder": "RS-IIL (Ralstonia solanacearum) (protein) AQQGVFTLPANTSFGVTAFANAANTQTIQVLVDNVVKATFTGSGTSDKLLGSQVLNSGSGAIKIQVSVNGKPSDLVSNQTILANKLNFAMVGSEDGTDNDYNDGIAVLNWPLG",
    "Category label": "yes (1)"
  },
  {
    "Binder": "Vd2LysM (Verticillium dahliae) (protein) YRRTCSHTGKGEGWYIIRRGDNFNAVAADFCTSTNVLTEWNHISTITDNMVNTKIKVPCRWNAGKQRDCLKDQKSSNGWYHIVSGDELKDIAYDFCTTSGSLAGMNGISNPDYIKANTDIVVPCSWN",
    "Category label": "no (0)"
  }
]

Request: # bool: glycan array binding signal (z-score) of Epa6 (Candida glabrata), Q6DTM7_CANGB (protein) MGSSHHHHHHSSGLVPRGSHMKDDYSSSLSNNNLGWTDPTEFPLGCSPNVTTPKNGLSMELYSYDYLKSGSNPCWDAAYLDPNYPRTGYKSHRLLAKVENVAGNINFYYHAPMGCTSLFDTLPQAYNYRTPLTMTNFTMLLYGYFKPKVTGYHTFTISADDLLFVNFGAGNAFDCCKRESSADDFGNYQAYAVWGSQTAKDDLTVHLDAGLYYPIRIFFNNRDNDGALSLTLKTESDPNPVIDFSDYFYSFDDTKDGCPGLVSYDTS >= -0.6
Response: yes (1)

Request: # bool: glycan array binding signal (z-score) of Pwp1 (Candida glabrata) (protein) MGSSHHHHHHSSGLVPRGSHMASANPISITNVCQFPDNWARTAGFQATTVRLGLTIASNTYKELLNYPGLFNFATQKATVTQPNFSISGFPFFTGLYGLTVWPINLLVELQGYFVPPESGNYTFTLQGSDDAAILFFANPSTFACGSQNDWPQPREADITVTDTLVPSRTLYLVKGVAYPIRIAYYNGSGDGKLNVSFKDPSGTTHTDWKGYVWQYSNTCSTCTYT >= -0.6
Response: no (0)
